# Lookup of reported growth inhibition keyed by entry
# Protocol Details: NCI Yeast Anticancer Drug Screen. Data for the mec2-1 strain (AID 157)
# Reported Conditions: S. cerevisiae mec2-1 strain, at 50.0 µM, active compounds read high
This is part of a sample that, as a whole, favours compounds with a hit. Of some 79,000 tested, about 15% had one in any assay.
Give the value in % but do not write % after it.

Below are worked cases with known answers.
Challenge: Read off the recorded growth inhibition for `Clc1cc[c]([Sn]([Cl])([c]2ccc(Cl)cc2)[c]2ccc(Cl)cc2)cc1`
Response given: 98.5

Challenge: Give reported growth inhibition value for O=P(O)(O)C(O)c1ccccc1 (centres undefined)
Response given: -31.9

Challenge: Tell me measured growth inhibition for `NC(=O)c1cc([N+](=O)[O-])c(Cl)c([N+](=O)[O-])c1` please.
Response given: 86.3

Challenge: // Input: `CCc1ccc(OP(=O)(Oc2cc(C)cc(C)c2)Oc2cc(C)cc(C)c2)cc1` . Output its growth inhibition only.
Response given: -12.9

Challenge: Consider the compound `CCCCCCCCCCOC(=O)CC(C)=O.CCCCCCCCCCOC(=O)CC(C)=O.[Ni+2]` . State its measured growth inhibition.
Response given: -9.3

Challenge: Consider the compound `COc1ccc2c3c1O[C@]1(C)C34CCN(C)C(C2)C42C=C[C@@]1(OC)c1c(O)ccc(O)c12` . State its measured growth inhibition.
Response given: -13.2

Others:
Challenge: State its growth inhibition: `[Fe+5].[O-][Cl+3]([O-])([O-])O.[O-]c1ccccc1C=NCCN1CC1.[O-]c1ccccc1C=NCCN1CC1`
Response given: 16

Challenge: Answer with the recorded growth inhibition of `O=[N+]([O-])c1cc(-c2ccccc2)ccc1O` only.
Response given: 98.7

Challenge: State its growth inhibition: `CC12CC[C]([Hg][I])(CC1)C2(C)C`
Response given: 98.6

Challenge: Kindly indicate its recorded growth inhibition. Item: `CCOC(=O)CC1=N/C(=N/C(=N)N[N+](=O)[O-])SC1`
Response given: -5.3

Challenge: # return recorded growth inhibition for input CC(=O)NC(ON1C(=O)COc2ccccc21)C(Cl)(Cl)Cl (centres undefined)
Response given: -16.8

---

Listed molecules paired with reported growth inhibition
# Protocol Details: NCI Yeast Anticancer Drug Screen. Data for the cln2 rad14 strain (AID 165);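 also: 0% = growth equal to vehicle treated cultures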
# Reported Conditions: S. cerevisiae cln2 rad14 strain, at 50.0 µM (retest, dose inferred, filed as 5.0), active compounds read high
About 79,000 compounds went through this panel and 15% of them were active in at least one assay; those are over-represented in the sample as a whole.
Numeric only. Scale: %

Consider the worked cases shown below.
Challenge: Return growth inhibition for the following molecule: `CC(=O)[O][Sn]([CH3])([CH3])[c]1ccccc1`
Response given: 77

Challenge: Please give the documented growth inhibition of COc1ccccc1[As]=[As]c1ccccc1OC (stereo not given)
Response given: 99

Challenge: Retrieve growth inhibition measured for `Cc1cc[n+](C2=C(Nc3c(C)cccc3C)C(=O)c3ccccc3C2=O)cc1` and print it.
Response given: 54

---
Challenge: Give growth inhibition for the following molecule: `CCCCCc1cc(O)c(CCCC)c(O)c1`
Response given: 32

Challenge: Determine its reported growth inhibition: C#CCN1C(=O)N(CC#C)C(=O)C(CC#C)(C(CC=C)c2ccccc2)C1=O (stereo not given)
Response given: 95

Challenge: Return growth inhibition for the following molecule: `O=[N+]([O-])c1ccc(N(CCO)CCO)c2c1no[n+]2[O-]`
Response given: 44

Challenge: // Input: `COc1ccc(C[C@H]2NC[C@H](O)[C@H]2OC(C)=O)cc1` . Output its growth inhibition only.
Response given: 99

Challenge: Output growth inhibition of CN1CCOC12CCC1(C)C(CCC3C4CCC(O)C4(C)CCC31)C2 (stereo not given)
Response given: 8

Challenge: State its growth inhibition for this molecule: `O=c1[nH]c2ccccc2n1C1CCN(CCCC(c2ccc(F)cc2)c2ccc(F)cc2)CC1`
Response given: -4

Challenge: Query growth inhibition for `COc1c(Cl)[c]([Hg][O]C(C)=O)c(NCC(C)=O)c(OC)[c]1[Hg][O]C(C)=O`
Response given: 95
